Measured IC50 values are reported for all entries that follow.
System: RS4; 11 leukaemia cell line
Test: In vitro cytotoxicity, Microculture Tetrazolium Assay (MTT)
Assay type: cell-based
Settings: Homo sapiens, 11 cells exposed for 48 hours

| compoundSmiles | assayedSystem | IC50 [nM] |
| --- | --- | --- |
| CCC(=O)N1CCc2cc(-c3cc(C(=O)N(C)c4ccc(O)cc4)c4n3CCCC4)c(C(=O)N3Cc4ccccc4C[C@H]3C)cc2C1 | RS4; 11 leukaemia cell line | 19 |
| COc1ccc(OC(=O)N2CCc3cc(-c4cc(C(=O)N(C)c5ccc(O)cc5)c5n4CCCC5)c(C(=O)N4Cc5ccccc5C[C@H]4CN4CCOCC4)cc3C2)cc1 | RS4; 11 leukaemia cell line | 2.8 |
| C[C@@H]1Cc2ccccc2CN1C(=O)c1cc2c(cc1-c1cc(C(=O)N(C)c3ccc(O)cc3)c3n1CCCC3)CN(C(=O)N(C)Cc1ccccc1)C2 | RS4; 11 leukaemia cell line | 58 |
| C[C@@H]1Cc2ccccc2CN1C(=O)c1cc2c(cc1-c1cc(C(=O)N(C)c3ccc(O)cc3)c3n1CCCC3)CN(C(=O)OCc1ccccc1)C2 | RS4; 11 leukaemia cell line | 113 |
| Cc1c(C(=O)N(C)c2ccccc2)cc(-c2cc3c(cc2C(=O)N2Cc4ccccc4C[C@H]2CN2CCOCC2)CN(C(=O)Oc2ccc(C#N)cc2)CC3)n1C | RS4; 11 leukaemia cell line | 29 |
| C[C@@H]1Cc2ccccc2CN1C(=O)c1cc2c(cc1-c1cc(C(=O)N(C)c3ccc(O)cc3)c3n1CCCC3)CCN(C(=O)Oc1ccc(CCC(=O)N(C)C)cc1)C2 | RS4; 11 leukaemia cell line | 2.9 |
| C[C@@H]1Cc2ccccc2CN1C(=O)c1cc2c(cc1-c1cc(C(=O)N(C)c3ccc(O)cc3)c3n1CCCC3)CCN(C(=O)Cc1cccc(NCCN(C)C)c1)C2 | RS4; 11 leukaemia cell line | 8.3 |
| Cc1c(C(=O)N(C)c2ccc(O)cc2)cc(-c2cc3c(cc2C(=O)N2Cc4ccccc4C[C@H]2C)CN(C(=O)Oc2ccccc2)CC3)n1C | RS4; 11 leukaemia cell line | 1.8 |
